# Assay explanation: A CellTox Green Cytotoxicity Assay to monitor cytotoxicity in HEK293 cells - 24 hour (AID 1224875); further: nearly all actives have a fitted effect of over 45% in size
# Condition info: CellTox Green fluorescence; series mostly up to 76.8 µM
Inconclusive results are not listed. The source made the active and inactive calls. The call rests on the fitted dose curve; in most records, active means well fitted activation curve with a large enough effect in the repeat runs; inconclusive means weak or mixed curves; inactive means flat fitted curve, though single readings scatter.
Pick from 1 = active, -1 = inactive when you respond.

>>> class_label("CC(=O)/C=C/c1ccc2c(c1)OCO2")
-1

Hi team, can someone confirm the assay call for CCc1cc(C)cc(CC)c1-c1c(OC(=O)C(C)(C)C)n2n(c1=O)CCOCC2 ?
-1

Hi team, can someone confirm the assay call for O=C(CBr)c1ccc(O)cc1 ?
-1

Hi team, can someone confirm the assay call for O=C(O)C1C2CCC(O2)C1C(=O)O (stereo unspecified) ?
-1

Hi team, can someone confirm the assay call for CCCCCCCCCCCCCCCCCCn1cc[n+](C)c1 ?
1

Hi team, can someone confirm the assay call for Nc1ccccc1C(=O)Oc1ccc2ccccc2c1 ?
-1
